Value source: PubChem BioAssay

Experiment: small-molecule microarray binders of probe aShh, primary screen, biochemical, biotinylated probe, 635/667 nm fluorescence (AID 1114);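 note: probe is biotin-labelled aShh protein from a stem cell growth factor screen; measures binding of labelled protein to compounds printed on the slide; score merges feature fluorescence at 667 nm with signal-to-noise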
Conditions: higher = more signal
Collected composite z-score values appear next to each entry.

Past entries and their recorded results:
INSERT INTO assay_data (compound, quantity, value_reported) VALUES
  ('C[C@@H]1CC[C@H]2C(=O)O[C@@H](Cc3ccccc3)CN2[C@H]1c1ccc(Br)cc1', 'composite z-score', -0.221),
  ('CC(C)CON=C1C[C@@H](O)[C@@H](O)[C@@H]2[C@@H]3C(=O)N(C4CCCCC4)C(=O)[C@@H]3CC[C@@H]12', 'composite z-score', -0.279),
  ('COCOc1ccc(Br)cc1C(=O)[C@@H]1O[C@H]1c1cccc(OC)c1', 'composite z-score', -0.136),
  ('Cc1ccc(S(=O)(=O)N[C@@H]2COC(=O)[C@@H](C)COC(=O)CC=C[C@H]2C)cc1', 'composite z-score', -0.157),
  ('CCOC(=O)[C@H](Cc1ccccc1)NC(=O)OC1CC(CCC2CC(CC)=NO2)OC2(CCCC(COC(=O)NCCC(C)C)O2)C1 (some centres not stated)', 'composite z-score', -0.195);

Request: Form field: reported composite z-score of CC(C)=CCCC(C)=CCON=C1C[C@@H](O)[C@@H](O)[C@@H]2[C@@H]3C(=O)N(c4cccc(Oc5ccccc5)c4)C(=O)[C@@H]3CC[C@@H]12
Result: -0.0064

Request: Form field: reported composite z-score of CC(C)=CCCC(C)=CCON=C1C[C@@H](O)[C@@H](O)[C@@H]2[C@@H]3C(=O)N(Cc4ccccc4)C(=O)[C@@H]3CC[C@H]12
Result: -0.2

###

Collected composite z-score values appear next to each entry.
Test: small-molecule binders of probe aLefty1, primary screen, biochemical, small-molecule microarray, 635/667 nm fluorescence (AID 1153);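 note: score merges spot fluorescence with signal-to-noise ratio from the scanned slide images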
Conditions: higher = more signal

Past entries and their recorded results:
INSERT INTO results (compound, value_reported) VALUES
  ('C[C@H](ON=C1[C@H]2CCn3c(=O)n(-c4ccccc4)c(=O)n3[C@H]2[C@H](O)[C@@H]2O[C@H]12)c1cn([C@H](CO)Cc2ccccc2)nn1', 0.0502),
  ('O=C(NN=C1C[C@@H](O)[C@@H](O)[C@@H]2[C@@H]3C(=O)N(C4CCCCC4)C(=O)[C@@H]3CC[C@H]12)OCc1ccccc1', 0.0721),
  ('Cc1ccc(S(=O)(=O)N[C@H]2COC(=O)CC=C[C@@H](C)COC(=O)CC=C[C@@H]2C)cc1', -0.296),
  ('CC[C@@H](c1ccccc1)n1c(=O)n2n(c1=O)[C@H]1[C@H](O)[C@@H]3O[C@@H]3C(=O)[C@H]1CC2', -0.101),
  ('CC(C)CON=C1C[C@@H](O)[C@@H](O)[C@@H]2[C@@H]3C(=O)N(c4ccc(F)cc4F)C(=O)[C@@H]3CC[C@H]12', 0.144),
  ('C=Cc1ccc([C@H]2N[C@H](C(=O)O)CC[C@@H]2C)cc1', -0.338),
  ('CCCNC(=O)OC[C@H]1O[C@H](c2ccccc2)C=C[C@@H]1Oc1ccc(OC)cc1', -0.092),
  ('CCOC(=O)[C@H](Cc1ccccc1)NC(=O)CCC1CC(OC(=O)NCCc2ccc(F)cc2)CC2(CCCC(COC(=O)NCCc3ccc(Cl)cc3)O2)O1 (stereo not given in full)', -0.0244);

Request: Form field: reported composite z-score of O=C1C[C@@H](O)[C@@H](O)[C@@H]2[C@@H]3C(=O)N(C[C@@H]4CCCO4)C(=O)[C@@H]3CC[C@@H]12
Result: -0.284

Request: Form field: reported composite z-score of CCN1C(=O)[C@H]2[C@H]3[C@H](O)[C@H](O)CC(=NOCC(C)C)[C@@H]3CC[C@H]2C1=O
Result: -0.245

Request: Form field: reported composite z-score of COC(=O)CC=C[C@@H](C)[C@@H](C=NO[C@@H](C)c1cn([C@H](CO)Cc2ccccc2)nn1)NS(=O)(=O)c1ccc(C)cc1
Result: 0.196

Request: Form field: reported composite z-score of C#CCCCON=C1[C@H]2CCn3c(=O)n(C)c(=O)n3[C@H]2[C@H](O)[C@@H]2O[C@H]12
Result: 0.126

Request: Form field: reported composite z-score of COC(=O)[C@H](C)NC(=O)CCC1CC(OC(=O)NCc2cccc3ccccc23)CC2(CCCC(COC(=O)NCC(c3ccccc3)c3ccccc3)O2)O1 (stereo not given in full)
Result: -0.0562

Request: Form field: reported composite z-score of CCOC(=O)[C@H](CC(C)C)NC(=O)CCC1CC(OC(=O)NCc2cccc3ccccc23)CC2(CCCC(COC(=O)NCc3ccncc3)O2)O1 (stereo not given in full)
Result: -0.142

Request: Form field: reported composite z-score of CCOC(=O)[C@H](Cc1ccccc1)NC(=O)CCC1CC(OC(=O)NCc2cccc3ccccc23)CC2(CCCC(COC(=O)NCC(c3ccccc3)c3ccccc3)O2)O1 (stereo not given in full)
Result: -0.116
